The reported measurements were obtained from ChEMBL document CHEMBL1142325.

- Assay Details: Bioavailability in monkey at 0.32 mg/kg, po by cassette assay
- Type: ADME, organism-based, Macaca mulatta
- Assay Conditions: rhesus monkey, in vivo
Assay Readout: bioavailability

Reported bioavailability for CC(C)Oc1cc(-c2ccc(CCNC[C@H](O)c3cccc(Cl)c3)cc2)ccc1C(=O)O was 83%

###

- Assay Details: Intrinsic clearance in human liver microsome
- Type: ADME
- Assay Conditions: liver microsomes
Assay Readout: CLint scaled

Worked cases, answers included:
>>> assay_result("CC(C)Oc1cc(-c2ccc(CCNC[C@H](O)c3ccccc3)cc2)ccc1C(=O)O")
"< 1 mL/min/kg"
>>> assay_result("CCOC(=O)COc1ccc2c(c1)C[C@@H](NC[C@H](O)c1cccc(Cl)c1)CCC2")
"18.2 mL/min/kg"

Kindly review the next molecule as well.
Reported CLint scaled for CC(C)Oc1cc(-c2ccc(CCNC[C@H](O)c3cccc(Cl)c3)cc2)ccc1C(=O)O was < 1 mL/min/kg

###

- Assay Details: Cmax in monkey at 1.0 mg/kg, po by cassette assay
- Type: ADME, organism-based, Macaca mulatta
- Set-up: dose 1 mg/kg, route oral
- Assay Conditions: rhesus monkey, in vivo
Assay Readout: Cmax

Reported Cmax for CCOC(=O)COc1ccc2c(c1)C[C@@H](NC[C@H](O)c1cccc(Cl)c1)CCC2 was 184 ng/mL

###

# maps each entry to its Papp
- Assay Details: in vitro
- Assay Conditions: PAMPA, pH 6.5
Enter your answer as a number in ×10⁻⁶ cm/s; do not include the unit.

Worked cases, answers included:
>>> assay_result("CC(C)Oc1cc(-c2ccc(CCNC[C@H](O)c3ccccc3)cc2)ccc1C(=O)O")
18
>>> assay_result("CC(C)Sc1cc(-c2ccc(CCNC[C@H](O)c3ccccc3)cc2)ccc1C(=O)O")
10
>>> assay_result("CC(C)Cc1cc(-c2ccc(CCNC[C@H](O)c3ccccc3)cc2)ccc1C(=O)O")
26

Kindly review the next molecule as well.
Reported Papp for COc1cc(-c2ccc(CCNC[C@H](O)c3cccc(Cl)c3)cc2)ccc1C(=O)O was 3.3

###

- Assay Details: Total clearance in rat at 0.32 mg/kg, iv by cassette assay
- Format: ADME, organism-based
- Set-up: dose 0.32 mg/kg, route intravenous
- Assay Conditions: in vivo
# maps each entry to its clearance
Enter your answer as a number in mL/min/kg; do not include the unit.

>>> assay_result("CC(C)Oc1cc(-c2ccc(CCNC[C@H](O)c3ccccc3)cc2)ccc1C(=O)O")
7.5

Kindly review the next compound as well.
Reported clearance for CC(C)Oc1cc(-c2ccc(CCNC[C@H](O)c3cccc(Cl)c3)cc2)ccc1C(=O)O was 4.4

###

- Assay Details: AUC (0 to 24 hrs) […] at 1.0 mg/kg, po by cassette assay
- Assay type: ADME, organism-based
- Set-up: time < 24 hr, dose 1 mg/kg, route oral
- Assay Conditions: plasma
Assay Readout: AUC(0-t) at 24 h

Reported AUC(0-t) at 24 h for CCOC(=O)COc1ccc2c(c1)C[C@@H](NC[C@H](O)c1cccc(Cl)c1)CCC2 was 4100 ng·h/mL

###

# maps each entry to its clearance
- Assay Details: in vivo
- Assay Conditions: dog, iv, 1 mg/mL
Enter your answer as a number in mL/min/kg; do not include the unit.

>>> assay_result("O=C(O)c1ccc(-c2ccc(CCNC[C@H](O)c3cccc(Cl)c3)cc2)cc1")
4

Kindly review the next compound as well.
Reported clearance for O=C(O)c1ccc(Oc2ccc(CCNC[C@H](O)c3cccc(Cl)c3)cc2)cc1 was 4.1

###

- Assay Details: Bioavailability in dog at 0.1 mg/kg, po by cassette assay
- Type: ADME, organism-based, Canis lupus familiaris
- Assay Conditions: in vivo
Assay Readout: bioavailability (%)
Enter your answer as a number in %; do not include the unit.

Reported bioavailability for CC(C)Oc1cc(-c2ccc(CCNC[C@H](O)c3cccc(Cl)c3)cc2)ccc1C(=O)O was 45

###

- Assay Details: in vitro
- Assay Conditions: PAMPA, pH 6.5
Assay Readout: Papp

>>> assay_result("O=C(O)c1ccc(-c2ccc(CCNC[C@H](O)c3cccc(Cl)c3)cc2)cc1OC1CCCCC1")
"> 30 ×10⁻⁶ cm/s"
>>> assay_result("CC(C)Oc1cc(-c2ccc(CCNC[C@H](O)c3cccc(Cl)c3)cc2)ccc1C(=O)O")
"> 30 ×10⁻⁶ cm/s"

Kindly review the next molecule as well.
Reported Papp for O=C(O)c1ccc(-c2ccc(CCNC[C@H](O)c3ccccc3)cc2)cc1OC1CCCCC1 was > 30 ×10⁻⁶ cm/s
